- Test system: Streptococcus pyogenes
- test.details: ED50 vs Streptococcus pyogenes experimental infection in mice (Table VI)
- Format: in vivo
- measurement.setup: sc, subcutaneous, two doses, several values = results from more than one test, read-out: ED50 Subcutaneous
Below, each entry is listed with its recorded ED50.
Kindly answer with a numeric value in mg/kg, unit omitted.

Some solved entries appear below for comparison.
Supply measured ED50 of CCC1OC(=O)CC(O)C(C)C(OC2OC(C)C(O)C(N(C)C)C2O)C(CC=O)CC(C)C(=O)C=CC(C)=CC1CN1C2CCCCC2C2CCCCC21 (stereo not shown) in your reply.
7.43

Supply measured ED50 of CCC1OC(=O)CC(O)C(C)C(OC2OC(C)C(O)C(N(C)C)C2O)C(CC=O)CC(C)C(=O)C=CC(C)=CC1CN1CCC2CCCCC21 (stereo not shown) in your reply.
1.86

Further cases:
Supply measured ED50 of CCC1OC(=O)CC(O)C(C)C(OC2OC(C)C(O)C(N(C)C)C2O)C(CC=O)CC(C)C(=O)C=CC(C)=CC1CN1CC2CCC(CC2)C1 (stereo not shown) [Compound 17, 23-(3-azabicyclo[3.2.2]nonan-3-yl)-OMT] in your reply.
9.09

---

Below, each entry is listed with its recorded MIC.
- Test system: Streptococcus Group D 2041
- test.details: MIC, standard agar-dilution assay (Table III)
- Format: cell-based
- measurement.setup: GROUPD2041
- Protocol: The MIC's s in Table III were determined by standard agar-dilution assays. The MIC's in Table IV were obtained using a conventional broth-dilution microtiter test.
Kindly answer with a numeric value in µg/mL, unit omitted.

Some solved entries appear below for comparison.
Supply measured MIC of CCC1OC(=O)CC(O)C(C)C(OC2OC(C)C(O)C(N(C)C)C2O)C(CC=O)CC(C)C(=O)C=CC(C)=CC1CN1CC2CCC(CC2)C1 (stereo not drawn) [Compound 17, 23-(3-azabicyclo[3.2.2]nonan-3-yl)-OMT] in your reply.
1

Supply measured MIC of CCC1OC(=O)CC(O)C(C)C(OC2OC(C)C(O)C(N(C)C)C2O)C(CC=O)CC(C)C(=O)C=CC(C)=CC1CN(Cc1ccccc1)C1CC2CCC1C2 (stereo not drawn) in your reply.
0.25

Further cases:
Supply measured MIC of CCC1OC(=O)CC(O)C(C)C(OC2OC(C)C(O)C(N(C)C)C2O)C(CC=O)CC(C)C(=O)C=CC(C)=CC1CN1CC2(C)CC1CC(C)(C)C2 (stereo not drawn) in your reply.
0.5

---

- Tested on: Mycoplasma gallisepticum 29C
- test.details: MIC, conventional broth-dilution microtiter test (Table IV)
- Type: cell-based
- measurement.setup: Mycoplasmoides gallisepticum, 29C
test.readout: MIC (mg/L)
Kindly answer with a numeric value in mg/L, unit omitted.

Supply measured MIC of CCC1OC(=O)CC(O)C(C)C(OC2OC(C)C(O)C(N(C)C)C2O)C(CC=O)CC(C)C(=O)C=CC(C)=CC1CNC12CC3CC(CC(C3)C1)C2 (centres unmarked) in your reply.
0.097

Further cases:
Supply measured MIC of CCC1OC(=O)CC(O)C(C)C(OC2OC(C)C(O)C(N(C)C)C2O)C(CC=O)CC(C)C(=O)C=CC(C)=CC1CN1CCCC12CCCCC2 (centres unmarked) in your reply.
0.097

---

- System: Pasteurella hemolytica 41D
- test.details: MIC, conventional broth-dilution microtiter test (Table IV)
- Format: cell-based
- measurement.setup: broth-dilution microtiter; Pasteurella hemolytica 41D; read-out: MIC
Below, each entry is listed with its recorded MIC.
Kindly answer with a numeric value in µg/mL, unit omitted.

Some solved entries appear below for comparison.
Supply measured MIC of CCC1OC(=O)CC(O)C(C)C(OC2OC(C)C(O)C(N(C)C)C2O)C(CC=O)CC(C)C(=O)C=CC(C)=CC1CN1C2CCCCC2C2CCCCC21 (centres unmarked) in your reply.
1.56

Supply measured MIC of CCC1OC(=O)CC(O)C(C)C(OC2OC(C)C(O)C(N(C)C)C2O)C(CC=O)CC(C)C(=O)C=CC(C)=CC1CN1CCCC2CCCCC21 (centres unmarked) [Compound 20, 23-deoxy-23-(decahydroquinolin-1-yl)-OMT] in your reply.
1.56

Supply measured MIC of CCC1OC(=O)CC(O)C(C)C(OC2OC(C)C(O)C(N(C)C)C2O)C(CC=O)CC(C)C(=O)C=CC(C)=CC1CN1CCCC12CCCCC2 (centres unmarked) in your reply.
0.39

Further cases:
Supply measured MIC of CCC1OC(=O)CC(O)C(C)C(OC2OC(C)C(O)C(N(C)C)C2O)C(CC=O)CC(C)C(=O)C=CC(C)=CC1CN1CC2CCC(CC2)C1 (centres unmarked) [Compound 17, 23-(3-azabicyclo[3.2.2]nonan-3-yl)-OMT] in your reply.
0.39

Supply measured MIC of CCC1OC(=O)CC(O)C(C)C(OC2OC(C)C(O)C(N(C)C)C2O)C(CC=O)CC(C)C(=O)C=CC(C)=CC1CN1CC2(C)CC1CC(C)(C)C2 (centres unmarked) in your reply.
1.56
